# Assay System: panel of 255 wild-type kinases (Homo sapiens, UniProt P29322)
# Sequence (P29322 28-1005): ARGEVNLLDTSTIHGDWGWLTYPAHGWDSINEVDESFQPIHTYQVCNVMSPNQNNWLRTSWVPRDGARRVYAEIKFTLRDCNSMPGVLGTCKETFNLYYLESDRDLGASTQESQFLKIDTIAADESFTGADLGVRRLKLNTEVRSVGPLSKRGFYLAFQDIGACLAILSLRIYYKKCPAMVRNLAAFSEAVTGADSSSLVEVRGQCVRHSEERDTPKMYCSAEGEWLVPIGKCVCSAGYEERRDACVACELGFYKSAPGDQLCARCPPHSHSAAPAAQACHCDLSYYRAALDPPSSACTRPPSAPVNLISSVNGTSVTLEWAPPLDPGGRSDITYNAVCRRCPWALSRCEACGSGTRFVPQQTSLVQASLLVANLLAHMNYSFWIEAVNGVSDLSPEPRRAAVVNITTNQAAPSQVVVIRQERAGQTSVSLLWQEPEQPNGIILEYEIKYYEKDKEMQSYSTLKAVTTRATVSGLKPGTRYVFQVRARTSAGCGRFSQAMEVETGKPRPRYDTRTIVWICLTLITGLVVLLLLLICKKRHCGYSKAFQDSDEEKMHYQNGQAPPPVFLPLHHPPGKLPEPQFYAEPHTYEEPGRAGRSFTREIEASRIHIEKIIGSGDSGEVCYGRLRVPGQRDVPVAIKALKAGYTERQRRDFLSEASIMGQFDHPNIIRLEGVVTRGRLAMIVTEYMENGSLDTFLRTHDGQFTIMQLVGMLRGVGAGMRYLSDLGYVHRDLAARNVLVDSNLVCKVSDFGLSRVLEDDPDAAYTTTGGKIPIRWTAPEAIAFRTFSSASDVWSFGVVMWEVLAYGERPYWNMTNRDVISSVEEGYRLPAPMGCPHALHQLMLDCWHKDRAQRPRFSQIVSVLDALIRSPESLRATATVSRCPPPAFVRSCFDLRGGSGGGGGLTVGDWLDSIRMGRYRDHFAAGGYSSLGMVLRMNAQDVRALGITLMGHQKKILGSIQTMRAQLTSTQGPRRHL
# Procedure Summary: Kinase panel profiling at 1 µmol/L (MSA or IMAP), percentage inhibition
# Format: biochemical
# Protocol Conditions: kinase EPHA8; 1 µmol/L single concentration; read-out: %-inhibition at 1 µmol/L, EPHA8
Metric: inhibition at 1 µM (%)

> print(dat)
                                   compound              metric  numeric.value
1  FC(F)(F)c1ccc(CNc2ccc(Cc3c[nH]c4ncc(Cl)cc34)cn2)cn1 [pexidartinib]  inhibition at 1 µM           6.33
2  CN1CCN(c2ccc(C(=O)Nc3n[nH]c4ccc(Cc5cc(F)cc(F)c5)cc34)c(NC3CCOCC3)c2)CC1 [entrectinib]  inhibition at 1 µM             55
3  Cc1cc(Nc2ncnc3ccc(NC4=NC(C)(C)CO4)cc23)ccc1Oc1ccn2ncnc2c1 [tucatinib]  inhibition at 1 µM            -14
4  Cn1cnc2c(F)c(Nc3ccc(Br)cc3F)c(C(=O)NOCCO)cc21 [binimetinib]  inhibition at 1 µM           2.68

====

Assay system MEK2 (Homo sapiens, UniProt P36507); read-out recorded as IC50.
Metric: IC50 (nM)

> print(dat)
                                   compound  result.operator  numeric.value
1  Cn1cnc2c(F)c(Nc3ccc(Br)cc3F)c(C(=O)NOCCO)cc21 [binimetinib]                >           1000
2  O=C(c1ccc(F)c(F)c1Nc1ccc(I)cc1F)N1CC(O)([C@@H]2CCCCN2)C1 [cobimetinib]                =            190

====

# Assay System: panel of 255 wild-type kinases (Homo sapiens, UniProt Q9HC98)
# Sequence (Q9HC98 whole entry): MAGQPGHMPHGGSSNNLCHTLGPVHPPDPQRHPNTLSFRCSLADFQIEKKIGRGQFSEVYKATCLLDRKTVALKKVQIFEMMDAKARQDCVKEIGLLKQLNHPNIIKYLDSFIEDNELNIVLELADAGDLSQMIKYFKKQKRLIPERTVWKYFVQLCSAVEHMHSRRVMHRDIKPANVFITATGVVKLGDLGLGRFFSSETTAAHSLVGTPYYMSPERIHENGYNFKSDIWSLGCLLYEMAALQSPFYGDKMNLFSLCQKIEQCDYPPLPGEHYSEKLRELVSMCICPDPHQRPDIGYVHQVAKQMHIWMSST
# Procedure Summary: Kinase panel profiling at 1 µmol/L (MSA or IMAP), percentage inhibition
# Format: biochemical
# Protocol Conditions: NEK6; 1 µmol/L single concentration; read-out: %-inhibition, NEK6
Metric: inhibition at 1 µM (%)

> print(dat)
                                        smi  numeric.value
1  FC(F)(F)c1ccc(CNc2ccc(Cc3c[nH]c4ncc(Cl)cc34)cn2)cn1         -0.796
2  Cc1nc(NC(=O)N2CCC[C@H]2C(N)=O)sc1-c1ccnc(C(C)(C)C(F)(F)F)c1          0.343
3  Cn1cnc2c(F)c(Nc3ccc(Br)cc3F)c(C(=O)NOCCO)cc21          -2.65

====

# Test system: 134 cancer cell lines
# Procedure Summary: Cell viability assay (ATPlite, 72 hours), IC50 on cancer cell line panel
# Protocol Conditions: Homo sapiens, SW872, read-out: IC50 in cell proliferation assay, cell line SW872 (BRAF p.V600E)
Metric: IC50 (nM)

> print(dat)
                                        smi           assay.system  measurement.unit  result.operator  numeric.value
1  CO[C@]1(C(=O)N[C@@H](C)c2ccc(-n3cc(F)cn3)nc2)CC[C@H](c2nc(C)cc(Nc3cc(C)[nH]n3)n2)CC1  134 cancer cell lines                nM                =           5580
2  Cn1cnc2c(F)c(Nc3ccc(Br)cc3Cl)c(C(=O)NOCCO)cc21  134 cancer cell lines                nM                =             25
3  FC(F)(F)c1ccc(CNc2ccc(Cc3c[nH]c4ncc(Cl)cc34)cn2)cn1  134 cancer cell lines                nM                >          31600
4  O=C(c1ccc(F)c(F)c1Nc1ccc(I)cc1F)N1CC(O)([C@@H]2CCCCN2)C1  134 cancer cell lines                nM                =             46

====

# Assay System: panel of 255 wild-type kinases (Homo sapiens)
# Procedure Summary: Kinase panel profiling at 1 µmol/L (MSA or IMAP), percentage inhibition
# Format: biochemical
# Protocol Conditions: CaMK4 kinase assay; 1 µmol/L single concentration; read-out: %-inhibition CaMK4
Form field: inhibition at 1 µM (one value per entry).
Metric: inhibition at 1 µM

> print(dat)
                                         smi   result
 1  O=C(Nc1cnn2ccc(N3CCC[C@@H]3c3cc(F)ccc3F)nc12)N1CC[C@H](O)C1   0.861%
 2  C[C@H](Nc1ncnc2nc[nH]c12)c1cc2cccc(Cl)c2c(=O)n1-c1ccccc1      -3%
 3  Cn1cnc2c(F)c(Nc3ccc(Br)cc3F)c(C(=O)NOCCO)cc21    2.67%
 4  C=CC(=O)N1CCC([C@@H]2CCNc3c(C(N)=O)c(-c4ccc(Oc5ccccc5)cc4)nn32)CC1   0.733%
 5  COc1ccc(CN2C3CC2CN(c2ccc(-c4cc(OCC(C)(C)O)cn5ncc(C#N)c45)cn2)C3)cn1   -2.54%
 6  C[C@H]1Oc2cc(cnc2N)-c2c(nn(C)c2C#N)CN(C)C(=O)c2ccc(F)cc21    1.56%
 7  COC(=O)N[C@@H](C)CNc1nccc(-c2cn(C(C)C)nc2-c2cc(Cl)cc(NS(C)(=O)=O)c2F)n1    4.35%
 8  CCc1nc(C(N)=O)c(Nc2ccc(N3CCC(N4CCN(C)CC4)CC3)c(OC)c2)nc1NC1CCOCC1      18%
 9  Cn1cnc2c(F)c(Nc3ccc(Br)cc3Cl)c(C(=O)NOCCO)cc21      -2%
10  Cn1cc(-c2cc3c(N4CCN(c5ncc([C@@](C)(N)c6ccc(F)cc6)cn5)CC4)ncnn3c2)cn1  -0.588%
11  CCN1CCN(c2ccc(Nc3cc(N(C)C(=O)Nc4c(Cl)c(OC)cc(OC)c4Cl)ncn3)cc2)CC1    2.47%
12  Cc1nc(NC(=O)N2CCC[C@H]2C(N)=O)sc1-c1ccnc(C(C)(C)C(F)(F)F)c1      -7%
13  CO[C@]1(C(=O)N[C@@H](C)c2ccc(-n3cc(F)cn3)nc2)CC[C@H](c2nc(C)cc(Nc3cc(C)[nH]n3)n2)CC1   0.271%
14  FC(F)(F)c1ccc(CNc2ccc(Cc3c[nH]c4ncc(Cl)cc34)cn2)cn1       4%
15  COc1cc2ncnc(Nc3ccc(F)c(Cl)c3)c2cc1NC(=O)/C=C/CN1CCCCC1    2.44%

====

# Assay System: panel of 255 wild-type kinases (Homo sapiens, UniProt Q9Y6E0)
# Sequence (Q9Y6E0 whole entry): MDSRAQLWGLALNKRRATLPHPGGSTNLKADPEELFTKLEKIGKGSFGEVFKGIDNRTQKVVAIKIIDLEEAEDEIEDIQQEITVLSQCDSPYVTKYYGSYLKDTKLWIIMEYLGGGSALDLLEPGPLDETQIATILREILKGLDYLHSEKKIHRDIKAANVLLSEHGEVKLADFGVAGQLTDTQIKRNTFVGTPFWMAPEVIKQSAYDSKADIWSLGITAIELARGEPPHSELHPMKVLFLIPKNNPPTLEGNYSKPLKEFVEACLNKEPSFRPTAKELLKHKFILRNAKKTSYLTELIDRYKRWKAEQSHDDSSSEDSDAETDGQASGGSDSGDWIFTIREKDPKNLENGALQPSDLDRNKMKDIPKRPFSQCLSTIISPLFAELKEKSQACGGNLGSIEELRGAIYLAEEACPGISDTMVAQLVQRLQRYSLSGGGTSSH
# Procedure Summary: Kinase panel profiling at 1 µmol/L (MSA or IMAP), percentage inhibition
# Assay type: biochemical
# Protocol Conditions: MST3; 1 µmol/L single concentration; read-out: %-inhibition, MST3
Metric: inhibition at 1 µM (%)

> print(dat)
                                        smi              metric  measurement.unit  numeric.value
1  CN1CCN(c2ccc(C(=O)Nc3n[nH]c4ccc(Cc5cc(F)cc(F)c5)cc34)c(NC3CCOCC3)c2)CC1  inhibition at 1 µM                 %           7.48
2  COC(=O)N[C@@H](C)CNc1nccc(-c2cn(C(C)C)nc2-c2cc(Cl)cc(NS(C)(=O)=O)c2F)n1  inhibition at 1 µM                 %              7
3  CCn1c(=O)c(-c2cc(NC(=O)Nc3ccccc3)c(F)cc2Br)cc2cnc(NC)cc21  inhibition at 1 µM                 %             -4
4  CCc1nc(C(N)=O)c(Nc2ccc(N3CCC(N4CCN(C)CC4)CC3)c(OC)c2)nc1NC1CCOCC1  inhibition at 1 µM                 %              5
5  Cn1cnc2c(F)c(Nc3ccc(Br)cc3Cl)c(C(=O)NOCCO)cc21  inhibition at 1 µM                 %              3
6  O=C(Nc1cnn2ccc(N3CCC[C@@H]3c3cc(F)ccc3F)nc12)N1CC[C@H](O)C1  inhibition at 1 µM                 %           1.65
7  C[C@H]1Oc2cc(cnc2N)-c2c(nn(C)c2C#N)CN(C)C(=O)c2ccc(F)cc21  inhibition at 1 µM                 %          -1.26

====

# Assay System: panel of 255 wild-type kinases (Homo sapiens, UniProt O95819)
# Sequence (O95819 whole entry): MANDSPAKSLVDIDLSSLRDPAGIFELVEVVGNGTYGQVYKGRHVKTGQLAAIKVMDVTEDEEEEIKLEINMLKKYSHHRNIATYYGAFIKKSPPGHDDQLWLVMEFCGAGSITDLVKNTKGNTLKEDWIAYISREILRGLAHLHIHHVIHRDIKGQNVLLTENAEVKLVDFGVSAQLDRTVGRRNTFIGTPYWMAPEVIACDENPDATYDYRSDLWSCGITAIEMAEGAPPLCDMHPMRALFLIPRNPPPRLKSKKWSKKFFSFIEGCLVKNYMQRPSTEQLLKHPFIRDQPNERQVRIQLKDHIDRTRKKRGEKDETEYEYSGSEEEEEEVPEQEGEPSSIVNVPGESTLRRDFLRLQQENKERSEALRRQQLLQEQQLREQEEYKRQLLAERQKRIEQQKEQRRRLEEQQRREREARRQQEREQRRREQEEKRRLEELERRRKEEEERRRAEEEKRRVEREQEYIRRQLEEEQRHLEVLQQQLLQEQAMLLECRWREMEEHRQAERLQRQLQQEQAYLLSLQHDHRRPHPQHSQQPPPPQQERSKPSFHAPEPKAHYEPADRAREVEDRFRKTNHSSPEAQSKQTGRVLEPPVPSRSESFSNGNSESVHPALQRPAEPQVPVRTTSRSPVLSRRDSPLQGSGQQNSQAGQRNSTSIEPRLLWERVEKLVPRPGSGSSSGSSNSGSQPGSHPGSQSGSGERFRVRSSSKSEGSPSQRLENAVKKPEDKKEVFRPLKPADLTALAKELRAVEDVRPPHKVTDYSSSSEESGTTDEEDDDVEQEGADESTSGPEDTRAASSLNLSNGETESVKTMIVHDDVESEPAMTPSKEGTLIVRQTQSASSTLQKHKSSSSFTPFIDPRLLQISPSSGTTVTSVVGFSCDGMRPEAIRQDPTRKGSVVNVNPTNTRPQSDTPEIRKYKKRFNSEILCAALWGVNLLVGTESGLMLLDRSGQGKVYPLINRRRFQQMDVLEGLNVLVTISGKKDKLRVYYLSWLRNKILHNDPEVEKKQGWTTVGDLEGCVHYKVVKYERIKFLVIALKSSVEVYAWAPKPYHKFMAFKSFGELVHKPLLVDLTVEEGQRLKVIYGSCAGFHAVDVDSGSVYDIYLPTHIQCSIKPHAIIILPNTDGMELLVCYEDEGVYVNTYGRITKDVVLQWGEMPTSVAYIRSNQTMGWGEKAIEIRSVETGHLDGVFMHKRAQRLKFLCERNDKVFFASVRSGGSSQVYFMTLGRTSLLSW
# Procedure Summary: Kinase panel profiling at 1 µmol/L (MSA or IMAP), percentage inhibition
# Type: biochemical
# Protocol Conditions: kinase HGK; 1 µmol/L single concentration; read-out: %-inhibition at 1 µmol/L, HGK
Metric: inhibition at 1 µM (%)

> print(dat)
                                         smi                              assay.system  numeric.value
 1  CCn1c(=O)c(-c2cc(NC(=O)Nc3ccccc3)c(F)cc2Br)cc2cnc(NC)cc21  panel of 255 wild-type kinases (Homo sapiens, UniProt O95819)             13
 2  Cn1cnc2c(F)c(Nc3ccc(Br)cc3F)c(C(=O)NOCCO)cc21  panel of 255 wild-type kinases (Homo sapiens, UniProt O95819)           3.18
 3  C[C@H]1Oc2cc(cnc2N)-c2c(nn(C)c2C#N)CN(C)C(=O)c2ccc(F)cc21  panel of 255 wild-type kinases (Homo sapiens, UniProt O95819)              1
 4  CCN1CCN(c2ccc(Nc3cc(N(C)C(=O)Nc4c(Cl)c(OC)cc(OC)c4Cl)ncn3)cc2)CC1  panel of 255 wild-type kinases (Homo sapiens, UniProt O95819)             15
 5  O=C(Nc1cnn2ccc(N3CCC[C@@H]3c3cc(F)ccc3F)nc12)N1CC[C@H](O)C1  panel of 255 wild-type kinases (Homo sapiens, UniProt O95819)           2.53
 6  COc1ccc(CN2C3CC2CN(c2ccc(-c4cc(OCC(C)(C)O)cn5ncc(C#N)c45)cn2)C3)cn1  panel of 255 wild-type kinases (Homo sapiens, UniProt O95819)              7
 7  CCc1nc(C(N)=O)c(Nc2ccc(N3CCC(N4CCN(C)CC4)CC3)c(OC)c2)nc1NC1CCOCC1  panel of 255 wild-type kinases (Homo sapiens, UniProt O95819)             96
 8  C=CC(=O)N1CCC([C@@H]2CCNc3c(C(N)=O)c(-c4ccc(Oc5ccccc5)cc4)nn32)CC1  panel of 255 wild-type kinases (Homo sapiens, UniProt O95819)           5.63
 9  COC(=O)N[C@@H](C)CNc1nccc(-c2cn(C(C)C)nc2-c2cc(Cl)cc(NS(C)(=O)=O)c2F)n1  panel of 255 wild-type kinases (Homo sapiens, UniProt O95819)           7.59
10  CCN1C(=O)N(c2c(F)c(OC)cc(OC)c2F)Cc2cnc3[nH]c(CN4CCOCC4)cc3c21  panel of 255 wild-type kinases (Homo sapiens, UniProt O95819)           4.64
11  COc1cc2ncnc(Nc3ccc(F)c(Cl)c3)c2cc1NC(=O)/C=C/CN1CCCCC1  panel of 255 wild-type kinases (Homo sapiens, UniProt O95819)             39
12  Cn1cc(-c2cc3c(N4CCN(c5ncc([C@@](C)(N)c6ccc(F)cc6)cn5)CC4)ncnn3c2)cn1  panel of 255 wild-type kinases (Homo sapiens, UniProt O95819)             37
13  FC(F)(F)c1ccc(CNc2ccc(Cc3c[nH]c4ncc(Cl)cc34)cn2)cn1  panel of 255 wild-type kinases (Homo sapiens, UniProt O95819)             24
14  CN1CCN(c2ccc(C(=O)Nc3n[nH]c4ccc(Cc5cc(F)cc(F)c5)cc34)c(NC3CCOCC3)c2)CC1  panel of 255 wild-type kinases (Homo sapiens, UniProt O95819)              7
15  C[C@H](Nc1ncnc2nc[nH]c12)c1cc2cccc(Cl)c2c(=O)n1-c1ccccc1  panel of 255 wild-type kinases (Homo sapiens, UniProt O95819)              2
16  Cc1cc(Nc2ncnc3ccc(NC4=NC(C)(C)CO4)cc23)ccc1Oc1ccn2ncnc2c1  panel of 255 wild-type kinases (Homo sapiens, UniProt O95819)           3.65
